Just for reference, ChEMBL document CHEMBL1155177 is where these values come from.

Tested on: CCRF-CEM
Assay Protocol: Drug level in human CD4+CEM cells per 10^9 cells at 0.1 uM
Assay type: ADME, cell-based
# reported Drug uptake; entries follow

Cc1cn([C@H]2C[C@H](N=[N+]=[N-])[C@@H](CO)O2)c(=O)[nH]c1=O [ZIDOVUDINE] | 4349 pmol

For this molecule ( C#C[C@]1(CO)O[C@@H](n2cnc3c(N)nc(F)nc32)C[C@@H]1O ), measured Drug uptake is 1730 pmol

###

Tested on: Human immunodeficiency virus 1
Assay Protocol: Antiviral activity against R5-HIV1MDR/G assessed as inhibition of p24 Gag protein in human PHA-PBMC by ELISA relative to X4-HIV1NL4-3
Format: functional
Value Kind: fold change (FC)

CC(C)CN(C[C@@H](O)[C@H](Cc1ccccc1)NC(=O)O[C@H]1CCOC1)S(=O)(=O)c1ccc(N)cc1 | 10
C[C@H](Cn1cnc2c(N)ncnc21)OCP(=O)(O)O [TENOFOVIR ANHYDROUS] | 3
C#C[C@]1(CO)O[C@@H](n2cnc3c(N)nc(F)nc32)C[C@@H]1O | 21
Cc1cn([C@H]2C[C@H](N=[N+]=[N-])[C@@H](CO)O2)c(=O)[nH]c1=O [ZIDOVUDINE] | 12

Now for a further molecule.
For this molecule ( CC(C)(C)NC(=O)[C@@H]1C[C@@H]2CCCC[C@@H]2CN1C[C@@H](O)[C@H](Cc1ccccc1)NC(=O)[C@H](CC(N)=O)NC(=O)c1ccc2ccccc2n1 ), measured fold change (FC) is 3

###

Assay Protocol: Inhibition of human DNA polymerase gamma using D21/D36 DNA as a template
Value Kind: pIC50
Recall that pIC50 is obtained by taking minus log10 of the concentration measured in molar.

For this compound ( Nc1ncnc2c1ncn2[C@H]1CC[C@@H](COP(=O)(O)OP(=O)(O)OP(=O)(O)O)O1 [DDA-TRIPHOSPHATE] ), measured pIC50 is 5.70

###

Tested on: MT4
Assay Protocol: Cytotoxicity against human MT4 cells by MTT assay
Assay type: functional
Value Kind: CC50 (µM)
# number only, unit µM dropped from output

CC(C)(C)NC(=O)[C@@H]1C[C@@H]2CCCC[C@@H]2CN1C[C@@H](O)[C@H](Cc1ccccc1)NC(=O)[C@H](CC(N)=O)NC(=O)c1ccc2ccccc2n1 | 26

Now for a further molecule.
For this molecule ( C#C[C@]1(CO)O[C@@H](n2cnc3c(N)nc(F)nc32)C[C@@H]1O ), measured CC50 is 11

###

Assay Protocol: Cytotoxicity against human PHA-PBMC cells by MTT assay
Assay type: cell-based
Value Kind: CC50 (µM)
# number only, unit µM dropped from output

The following compounds have reported results that may help.
C[C@H](Cn1cnc2c(N)ncnc21)OCP(=O)(O)O [TENOFOVIR ANHYDROUS] | 53
CC(C)(C)NC(=O)[C@@H]1C[C@@H]2CCCC[C@@H]2CN1C[C@@H](O)[C@H](Cc1ccccc1)NC(=O)[C@H](CC(N)=O)NC(=O)c1ccc2ccccc2n1 | 78

Now for a further compound.
For this compound ( C#C[C@]1(CO)O[C@@H](n2cnc3c(N)nc(F)nc32)C[C@@H]1O ), measured CC50 is 12

###

# reported Ki; entries follow
Assay Protocol: Inhibition of human DNA polymerase gamma using D21/D36 DNA as a template
# number only, unit µM dropped from output

For this molecule ( Nc1ncnc2c1ncn2[C@H]1CC[C@@H](COP(=O)(O)OP(=O)(O)OP(=O)(O)O)O1 [DDA-TRIPHOSPHATE] ), measured Ki is 4.6

For this molecule ( C#C[C@]1(COP(=O)(O)OP(=O)(O)OP(=O)(O)O)O[C@@H](n2cnc3c(N)nc(F)nc32)C[C@@H]1O ), measured Ki is 24.4

###

Test system: Human immunodeficiency virus 1
Assay Protocol: Antiviral activity against R5-HIV1Ba-L assessed as inhibition of p24 Gag protein production in human PHA-PBMC by ELISA
Type: functional, organism-based
Stated Conditions: Human immunodeficiency virus 1, Ba-L
Value Kind: pEC50
Recall that pEC50 is obtained by taking minus log10 of the concentration measured in molar.

C[C@H](Cn1cnc2c(N)ncnc21)OCP(=O)(O)O [TENOFOVIR ANHYDROUS] | 7.49

For this molecule ( C#C[C@]1(CO)O[C@@H](n2cnc3c(N)nc(F)nc32)C[C@@H]1O ), measured pEC50 is 9.40

###

Assay Protocol: Inhibition of human DNA polymerase beta using D21/D36 DNA as a template
Value Kind: IC50 (nM)
# number only, unit nM dropped from output

For this compound ( Nc1ncnc2c1ncn2[C@H]1CC[C@@H](COP(=O)(O)OP(=O)(O)OP(=O)(O)O)O1 [DDA-TRIPHOSPHATE] ), measured IC50 is 3000

###

System: Human immunodeficiency virus 1
Assay Protocol: Antiviral activity against R5-HIV1MDR/C assessed as inhibition of p24 Gag protein production in human PHA-PBMC by ELISA
Format: functional, organism-based
Value Kind: log10(EC50) (log10 of the value in nM)
A value of 2 here means EC50 of 100 in nM, since values are log10.

The following compounds have reported results that may help.
CC(C)CN(C[C@@H](O)[C@H](Cc1ccccc1)NC(=O)O[C@H]1CCOC1)S(=O)(=O)c1ccc(N)cc1 | 2.45
CC(C)(C)NC(=O)[C@@H]1C[C@@H]2CCCC[C@@H]2CN1C[C@@H](O)[C@H](Cc1ccccc1)NC(=O)[C@H](CC(N)=O)NC(=O)c1ccc2ccccc2n1 | 1.57
C[C@H](Cn1cnc2c(N)ncnc21)OCP(=O)(O)O [TENOFOVIR ANHYDROUS] | 1.67

Fill in: Human immunodeficiency virus 1 log10(EC50) for Cc1cn([C@H]2C[C@H](N=[N+]=[N-])[C@@H](CO)O2)c(=O)[nH]c1=O = 2.59

Fill in: Human immunodeficiency virus 1 log10(EC50) for C#C[C@]1(CO)O[C@@H](n2cnc3c(N)nc(F)nc32)C[C@@H]1O = 0.60
